Protocol details: in vitro
Assay type: in vitro ADME
Condition details: human; Caco-2 monolayer, basolateral to apical, 90-minute incubation; read-out: Papp, B-A
Endpoint: Papp B→A at 90 min

* CCC(=O)OC[C@H]1O[C@@](C#N)(c2ccc3c(N)ncnn23)[C@H](O)[C@@H]1OC(=O)Cc1ccccc1 [Compound 68] | 9.3 ×10⁻⁶ cm/s
* CCC(=O)OC[C@H]1O[C@@](C#N)(c2ccc3c(N)ncnn23)[C@H](O)[C@@H]1OC(=O)CC [Compound 71] | 2.3 ×10⁻⁶ cm/s
* CC(C)C(=O)Nc1ncnn2c([C@]3(C#N)O[C@H](COC(=O)Cc4ccccc4)[C@@H](OC(=O)[C@@H](N)C(C)C)[C@H]3O)ccc12 [Compound 347] | 17 ×10⁻⁶ cm/s
* CC(C)[C@H](N)C(=O)OC[C@H]1O[C@@](C#N)(c2ccc3c(N)ncnn23)[C@H](O)[C@@H]1OC(=O)Cc1ccccc1 [Compound 36] | 10.3 ×10⁻⁶ cm/s
* CCCCCOC(=O)Nc1ncnn2c([C@]3(C#N)O[C@H](COC(=O)Cc4ccccc4)[C@@H](O)[C@H]3O)ccc12 [Compound 89] | 6.6 ×10⁻⁶ cm/s
* CNc1nc(N)nc2c1ncn2[C@@H]1O[C@H](COC(C)=O)[C@@H](OC(=O)Cc2ccccc2)[C@@]1(C)F [Compound 210] | 5.8 ×10⁻⁶ cm/s
* CNc1nc(N)nc2c1ncn2[C@@H]1O[C@H](COC(=O)Cc2ccccc2)[C@@H](OC(C)=O)[C@@]1(C)F [Compound 217] | 6.1 ×10⁻⁶ cm/s
* CC(=O)O[C@@H]1[C@H](OC(=O)[C@@H](N)C(C)C)[C@@H](COC(=O)Cc2ccccc2)O[C@@]1(C#N)c1ccc2c(N)ncnn12 [Compound 343] | 6.5 ×10⁻⁶ cm/s

# input I am curious: what Papp B→A at 90 min value has been reported for CC(C)[C@H](N)C(=O)O[C@H]1[C@@H](O)[C@](C#N)(c2ccc3c(N)ncnn23)O[C@@H]1COC(=O)Cc1ccccc1 [Compound 43] ?
# output 0.22 ×10⁻⁶ cm/s

# input And N#C[C@@]1(c2ccc3c(NC(=O)[C@@H](N)Cc4ccc(F)cc4)ncnn23)O[C@H](COC(=O)Cc2ccccc2)[C@@H](O)[C@H]1O [Compound 97] ?
# output 6.6 ×10⁻⁶ cm/s

# input Next: CCCCCOC(=O)Nc1ncnn2c([C@]3(C#N)O[C@H](CO)[C@@H](OC(=O)Cc4ccccc4)[C@H]3O)ccc12 [Compound 141]
# output 0.04 ×10⁻⁶ cm/s

# input Likewise for CC(=O)OC[C@H]1O[C@@](C#N)(c2ccc3c(N)ncnn23)[C@H](O)[C@@H]1OC(=O)Cc1ccccc1 [Compound 52] ?
# output 0.89 ×10⁻⁶ cm/s

# input Then this compound: N#C[C@@]1(c2ccc3c(NC(=O)c4ccccc4)ncnn23)O[C@H](CO)[C@@H](OC(=O)Cc2ccccc2)[C@H]1O [Compound 143]
# output 0.12 ×10⁻⁶ cm/s
